The reported measurements were obtained from patent EP3925949A1.

test-system: acid ceramidase (AC) (Homo sapiens, UniProt Q13510)
Sequence (Q13510 143-395 limits assumed): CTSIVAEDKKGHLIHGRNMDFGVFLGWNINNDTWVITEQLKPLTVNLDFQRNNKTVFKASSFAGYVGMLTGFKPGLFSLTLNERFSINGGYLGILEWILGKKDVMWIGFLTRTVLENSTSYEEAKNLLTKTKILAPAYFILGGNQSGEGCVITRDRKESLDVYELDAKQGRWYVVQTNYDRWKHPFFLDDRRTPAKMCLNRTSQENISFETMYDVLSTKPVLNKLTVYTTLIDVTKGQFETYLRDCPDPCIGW
Sequence (Q13510 22-142 limits assumed): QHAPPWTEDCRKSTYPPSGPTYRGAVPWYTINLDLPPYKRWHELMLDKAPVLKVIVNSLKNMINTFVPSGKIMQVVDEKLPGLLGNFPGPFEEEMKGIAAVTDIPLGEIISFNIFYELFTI
measurement-protocol: AC activity by flow cytometry with RBM5-177/CO-1 in intact cells
Type: cell-based
Set-up: expressed in transfected cells; host or cells: A375/+Dox and FD/AC (overexpressing AC); A375/-Dox and A549 (endogenous AC)
setup-conditions: A375/+Dox, 4 h, RBM5-177 as substrate, labelling with CO-1 (1 µM, 10 min)
Protocol: Cells were seeded at 1 × 10^5 cells/mL into 6 well plates (1 mL/well) and were allowed to adhere for 24 h. Medium was replaced with fresh medium containing Soclac (5 µM final concentration) and incubated for 1 h. […] Pellets were resuspended with 200 µL of PBS and stained cells were analyzed by using a Guava EasyCyte™ flow cytometer (Merck Millipore, Billerica, MA) measuring green fluorescence (488/525 nm). […]
measured-property: IC50
Numeric answer plus unit only.

Give the measured IC50 of CCCCCCCCCCCCC/C=C/[C@H](CO)NC(=O)C(C)(C)C .
27 µM
